# ASSAY_TARGET: Cytochrome P450 2C9 (Homo sapiens) (UniProt P11712)
# Sequence (P11712 whole entry, looked up): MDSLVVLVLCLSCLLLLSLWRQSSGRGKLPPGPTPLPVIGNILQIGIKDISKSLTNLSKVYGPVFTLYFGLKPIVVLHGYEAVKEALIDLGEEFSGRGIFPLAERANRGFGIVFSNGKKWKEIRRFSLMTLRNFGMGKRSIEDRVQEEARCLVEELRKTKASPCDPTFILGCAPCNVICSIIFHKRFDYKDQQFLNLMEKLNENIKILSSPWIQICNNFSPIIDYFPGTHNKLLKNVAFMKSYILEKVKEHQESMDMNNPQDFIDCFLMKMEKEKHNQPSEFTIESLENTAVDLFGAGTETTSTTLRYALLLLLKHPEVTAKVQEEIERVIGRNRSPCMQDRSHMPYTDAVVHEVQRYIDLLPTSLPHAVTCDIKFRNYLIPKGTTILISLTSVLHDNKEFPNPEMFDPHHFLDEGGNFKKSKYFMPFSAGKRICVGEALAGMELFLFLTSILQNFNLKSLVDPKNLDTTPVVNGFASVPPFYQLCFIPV
# ASSAY_DETAILS: Cytochrome panel assay with activity outcomes
# CONDITION_LABEL: recombinant CYP, pro-luciferin dealkylation, luminescence, p450-cyp2c9; series mostly up to 57.1 µM
Among all 16,000 compounds or so, about 4,000 (25%) were called active. Inconclusive results (about 26%) are left out. Calls come from the whole dose curve; as a rule, active = well fitted curve in the direction sought with a large enough effect; inconclusive = small, poorly fitted or top-dose-only effect, or effect the other way; inactive = no such curve, though single readings can be large or run the other way. These entries were drawn from the full list.
The categories you may choose from are active, inactive

# example entries with known answers
# COMPOUND, DISCRETE_LABEL
measured = [
    ("COc1ccc(NC(=O)N2CC[C@@]3(CCCN(C(C)=O)C3)C2)cc1", "inactive"),
    ("CCC1CCCCN1Cc1cc(OC)c(O)c([N+](=O)[O-])c1 (stereo unspecified)", "inactive"),
    ("CCn1c(C)nc2cc(S(=O)(=O)C(F)F)ccc21", "inactive"),
]

// outcome(item) with item = COC(=O)c1cccc(NC(=O)Nc2ccc(Cl)c(Cl)c2)c1
active

Check the results log: what was the call for Cc1onc(C(=O)/C=C/N(C)C)c1C(=O)Nc1nccs1 ?
inactive

Hello, I am checking results. What call was entered for O=[N+]([O-])c1cccc(-c2nc(-c3cccs3)c(-c3cccs3)[nH]2)c1 ?
active

* * *

# ASSAY_TARGET: Cytochrome P450 2C9 (Homo sapiens)
# ASSAY_DETAILS: Cytochrome panel assay with activity outcomes
# CONDITION_LABEL: recombinant CYP, pro-luciferin dealkylation, luminescence, p450-cyp2c9; series mostly up to 57.1 µM
Out of some 16,000 compounds screened, about 4,000 (25%) were called active. Not shown: some 26% with an inconclusive outcome. Calls come from the whole dose curve; as a rule, active = well fitted curve in the direction sought with a large enough effect; inconclusive = small, poorly fitted or top-dose-only effect, or effect the other way; inactive = no such curve, though single readings can be large or run the other way. Only a sample is shown.
Outcome (select one): 1 (active), 0 (inactive)

# MOLECULE, DISCRETE_LABEL
rows = [
    ("CC(=O)c1c(C(C)=O)c(C)n(NC(=O)c2ccncc2)c1C", 1),
    ("Cc1ccc(C(C(=O)NC2CCCCC2)N2CCN(C(=O)c3ccco3)CC2)cc1 (stereo unspecified)", 0),
    ("C/C=C\\C[C@H](C)[C@H](O)[C@H]1C(=O)N[C@@H](CC)C(=O)N(C)CC(=O)N(C)[C@@H](CC(C)C)C(=O)N[C@@H](C(C)C)C(=O)N(C)[C@@H](CC(C)C)C(=O)N[C@@H](C)C(=O)N[C@@H](C)C(=O)N(C)[C@@H](CC(C)C)C(=O)N(C)[C@@H](CC(C)C)C(=O)N(C)[C@@H](C(C)C)C(=O)N1C", 0),
    ("CC(=O)Nc1c(S(=O)(=O)c2ccccc2)c2nc3ccccc3nc2n1Cc1ccccc1", 1),
    ("C[N+]1(C)CCC[C@@H](OC(=O)C(O)(c2ccccc2)c2ccccc2)C1", 0),
    ("COc1nc(OCCNC(C)=O)nc(N(C)C)n1", 0),
    ("O=C(Nc1ccccc1C(=O)Nc1ccc2c(c1)OCO2)c1ccco1", 1),
    ("c1ccc2c(CSc3nnc(-c4ccncc4)o3)cccc2c1", 1),
]

Just curious, what result did Clc1ccccc1CSc1nnc(-c2ccncc2)o1 get here?
1

Which outcome did this test record for the molecule O=C(Nc1ccccc1C(=O)NCCc1ccccc1)c1ccco1 ?
1

Per the records of this test, what outcome belongs to C#CCSc1nnc(-c2sc3ccccc3c2Cl)o1 ?
0

* * *

Each record here notes measured activity, negative = inhibition.
# ASSAY_TARGET: Cytochrome P450 2C9 (Homo sapiens)
# ASSAY_DETAILS: Cytochrome panel assay with activity outcomes; for activity, negative = inhibition: % is set by controls: 0 for no effect and ±100 for the full control effect
# CONDITION_LABEL: recombinant CYP, pro-luciferin dealkylation, luminescence, p450-cyp2c9; series mostly up to 57.1 µM
Screen size: about 16,000 compounds; about 4,000 (25%) were called active. Not shown: some 26% with an inconclusive outcome. Not all results are given here.

Worked examples, 3 compounds total:
# SMILES_RECORD, ASSAY_TARGET, activity, negative = inhibition
records = [
    ("O=C(O)c1cc(-c2ccc(-c3ccccc3)cc2)nc2cc3ccccc3cc12", "Cytochrome P450 2C9 (Homo sapiens)", "-27% [at 11.4 µM] (inactive)"),
    ("CN1CCN(c2nc(-c3ccoc3)nc3ccccc23)CC1", "Cytochrome P450 2C9 (Homo sapiens)", "6.78% [at 2.29 µM] (inactive)"),
    ("N#C[C@@H](N=Nc1ccccc1C(=O)O)C(N)=O", "Cytochrome P450 2C9 (Homo sapiens)", "-3.32% [at 11.4 µM] (inactive)"),
]

# query: activity, negative = inhibition | item Cc1noc(C)c1-c1cncnc1NC1CC1 | system: Cytochrome P450 2C9 (Homo sapiens)
4.67% [at 2.29 µM] (inactive)

Form entry - test system: Cytochrome P450 2C9 (Homo sapiens); read-out: activity, negative = inhibition; compound: CSC1(SC2=NCCN2)SC2(NCCN2)S1
-10.8% [at 11.4 µM] (inactive)

Form field - read-out: activity, negative = inhibition; system: Cytochrome P450 2C9 (Homo sapiens); submitted item: O=P(O)(O)O[C@@H]1O[C@H](CO)[C@@H](O)[C@H](O)[C@@H]1O
8.79% [at 11.4 µM] (inactive)

* * *

# ASSAY_TARGET: Cytochrome P450 2C9 (Homo sapiens) (UniProt P11712)
# ASSAY_DETAILS: Cytochrome panel assay with activity outcomes
# CONDITION_LABEL: recombinant CYP, pro-luciferin dealkylation, luminescence, p450-cyp2c9; series mostly up to 57.1 µM
Screen size: about 16,000 compounds; about 4,000 (25%) were called active. About 26% were inconclusive and are not listed. Calls follow the shape of the dose curve; as a rule, active = well fitted curve in the direction sought with a large enough effect; inconclusive = small, poorly fitted or top-dose-only effect, or effect the other way; inactive = no such curve, though single readings can be large or run the other way. Only a sample is shown.
Give your call using only these classes: yes (1) (active), no (0) (inactive)

# COMPOUND, ASSAY_TARGET, DISCRETE_LABEL
measured = [
    ("CC(C)NC(=O)CC(=O)N/N=C/c1ccc(F)cc1", "Cytochrome P450 2C9 (Homo sapiens) (UniProt P11712)", "no (0)"),
]

Could you please tell me the result logged for O=C(Nc1ccccc1)/C(=C\c1ccc2c(c1)OCO2)NC(=O)c1ccco1 in this assay?
yes (1)

Hi, sorry to bother you, what did the test record for CCOc1ccc(-n2c(=O)[nH]cc(C(=O)N3CCCc4ccccc43)c2=O)cc1 ?
yes (1)

Assay result, entry COc1cccc(C(CC(=O)Nc2cccc3ccccc23)NC(=O)c2ccccc2)c1 (centres undefined) — outcome?
yes (1)

Check the results log: what was the call for COc1cccc(N2C(=O)C(CC(=O)Nc3ccccc3)N(C3CCCCC3)C2=O)c1 (centres undefined) ?
yes (1)

What did the test return for Cc1cc(=O)oc(C)c1C(=O)NCc1ccccc1 ?
no (0)

GET /call?item= O=C(c1c[nH]c(=O)n(-c2ccccc2)c1=O)N1CCc2ccccc21 returns the recorded outcome of this test.
no (0)

// outcome(item) with item = O=C1CCCN1c1ccc(S(=O)(=O)Oc2cccc(Cl)c2)cc1[N+](=O)[O-]
yes (1)

Per the records of this test, what outcome belongs to COc1cccc(CC(C(=O)Nc2cc(C)ccc2C)c2nn[nH]n2)c1OC (centres undefined) ?
no (0)

Lab log entry: O=C(Nc1ccccc1)N1CCC2(CC1)CCN(C(=O)c1ccco1)CC2 — outcome as called in the assay?
no (0)

What was the test verdict on CC(C)(C)C(=O)Nc1ccnc(-c2cccnc2)n1 ?
yes (1)

Recorded test call requested for N#C/C(=C\c1ccc(O)c(O)c1)C(=O)Nc1ccccc1
no (0)

Called result for COc1ccc(C(N)=O)cc1NC(=O)c1cccc(F)c1
no (0)

* * *

# ASSAY_TARGET: Cytochrome P450 2C9 (Homo sapiens) (UniProt P11712)
# ASSAY_DETAILS: Cytochrome panel assay with activity outcomes
# CONDITION_LABEL: recombinant CYP, pro-luciferin dealkylation, luminescence, p450-cyp2c9; series mostly up to 57.1 µM
# Procedure: The P450 gene superfamily is involved in the metabolism and clearance of xenobiotics. This assay used various human CYP P450 isozymes to measure the dealkylation of various pro-luciferin substrates to luciferin. The luciferin is then measured by luminescence after the addition of a luciferase detection reagent. […] Inhibitors and some substrates limit the production of luciferin, and decrease measured luminescence. […] 8, Detection, 1 sec, ViewLux luminescent read […]
About 4,000 (25%) of roughly 16,000 compounds were called active. About 26% were inconclusive and are not listed. Calls come from the whole dose curve; as a rule, active = well fitted curve in the direction sought with a large enough effect; inconclusive = small, poorly fitted or top-dose-only effect, or effect the other way; inactive = no such curve, though single readings can be large or run the other way. The list is a sample of the results.
Field 'call' accepts true (1) = active, false (0) = inactive

Could you check what this test reported for CC(C)NC(=O)N1CC2(CCN(C(=O)c3cc(C(F)(F)F)cc(C(F)(F)F)c3)CC2)C1 ?
false (0)

Outcome logged for COc1cccc(CNC(=O)CCNC(=O)Cn2ccc3ccccc3c2=O)c1 in this assay:
true (1)

Outcome? Cc1ccc(Cc2cnc(NC(=O)c3cccs3)s2)cc1
true (1)

* * *

# ASSAY_TARGET: Cytochrome P450 2C9 (Homo sapiens) (UniProt P11712)
# ASSAY_DETAILS: Cytochrome panel assay with activity outcomes
# CONDITION_LABEL: recombinant CYP, pro-luciferin dealkylation, luminescence, p450-cyp2c9; series mostly up to 57.1 µM
Screen size: about 16,000 compounds; about 4,000 (25%) were called active. About 26% were inconclusive and are not listed. Calls come from the whole dose curve; as a rule, active = well fitted curve in the direction sought with a large enough effect; inconclusive = small, poorly fitted or top-dose-only effect, or effect the other way; inactive = no such curve, though single readings can be large or run the other way. Only a sample is shown.
Field 'call' accepts active, inactive

# SMILES_RECORD, DISCRETE_LABEL
rows = [
    ("CN(C)S(=O)(=O)Oc1ccsc1C(=O)Nc1cccc(Cl)c1", "active"),
    ("O=C(Nc1cnn(Cc2ccc(Cl)cc2Cl)c1)c1cc(-c2cccs2)on1", "active"),
    ("Cc1cc(NC(=O)Nc2ccc(N(C)C)cc2)c2cc(F)cc(F)c2n1", "active"),
    ("Cc1cc(C)n2nc(SCc3cc(=O)oc4ccc5ccccc5c34)nc2n1", "active"),
]

From here, focus on the item given below.
Dear all, I need the recorded test outcome for COc1ccc(-c2cc(C(=O)Nc3cnn(Cc4ccccc4C)c3)no2)cc1OC , thank you.
inactive
